Taken from ChEMBL document CHEMBL5291721.

# collection of AC50 values tested on UniProtKB P23975
# Sequence (P23975 whole entry): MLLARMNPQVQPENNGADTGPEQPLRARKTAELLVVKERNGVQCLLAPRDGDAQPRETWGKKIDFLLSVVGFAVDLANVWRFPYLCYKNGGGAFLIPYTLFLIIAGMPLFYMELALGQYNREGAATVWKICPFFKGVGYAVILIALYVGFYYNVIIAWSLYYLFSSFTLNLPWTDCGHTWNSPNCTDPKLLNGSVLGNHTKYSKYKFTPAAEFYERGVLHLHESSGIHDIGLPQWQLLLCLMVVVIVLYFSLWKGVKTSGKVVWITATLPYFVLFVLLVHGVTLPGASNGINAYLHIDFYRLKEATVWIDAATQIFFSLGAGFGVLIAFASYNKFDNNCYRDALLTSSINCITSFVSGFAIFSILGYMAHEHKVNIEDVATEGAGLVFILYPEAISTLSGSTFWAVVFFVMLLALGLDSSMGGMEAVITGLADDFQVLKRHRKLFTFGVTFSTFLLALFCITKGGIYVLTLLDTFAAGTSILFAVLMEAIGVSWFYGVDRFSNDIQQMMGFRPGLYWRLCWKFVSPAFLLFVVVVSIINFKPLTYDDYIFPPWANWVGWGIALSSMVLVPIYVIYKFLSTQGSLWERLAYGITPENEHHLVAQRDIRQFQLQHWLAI

Per the reported UniProtKB P23975 data, "CN[C@]1(c2ccccc2Cl)CCCCC1=O" has AC50 of > 30 µM

Per the reported UniProtKB P23975 data, "COc1cc(C(C)=O)ccc1OCCCN1CCC(c2noc3cc(F)ccc23)CC1" has AC50 of 1.63 µM

Per the reported UniProtKB P23975 data, "CCOC(=O)C1=C(C)NC(C)=C(C(=O)OCC)C1c1ccccc1/C=C/C(=O)OC(C)(C)C" has AC50 of > 30 µM

Per the reported UniProtKB P23975 data, "CCCCCCCC(=O)CC[C@@H]1[C@@H](C/C=C\CCCC(=O)OC(C)C)[C@@H](O)C[C@H]1O" has AC50 of 7.2 µM

Per the reported UniProtKB P23975 data, CN(CCOc1ccc(CC2SC(=O)NC2=O)cc1)c1ccccn1 (configuration not stated) has AC50 of > 30 µM

Per the reported UniProtKB P23975 data, "CNCCc1ccc(OC(=O)C(C)C)c(OC(=O)C(C)C)c1" has AC50 of > 30 µM

Per the reported UniProtKB P23975 data, "Cc1ccccc1-n1c(CF)nc2ccc(N)cc2c1=O" has AC50 of > 30 µM

Per the reported UniProtKB P23975 data, CC(C)[C@@H](C)/C=C/[C@@H](C)[C@H]1CC[C@H]2/C(=C/C=C3\C[C@@H](O)CC[C@@H]3C)CCC[C@]12C [DIHYDROTACHYSTEROL] has AC50 of > 10 µM

Per the reported UniProtKB P23975 data, CC(C)(C)NCC(O)c1ccccc1Cl (configuration not stated) has AC50 of > 30 µM

Per the reported UniProtKB P23975 data, CCCN1CC(NS(=O)(=O)N(CC)CC)CC2Cc3c(O)cccc3CC21 (configuration not stated) [QUINAGOLIDE] has AC50 of 21 µM

Per the reported UniProtKB P23975 data, CC1=C(C(=O)OC(C)C)C(c2cccc([N+](=O)[O-])c2)C(C(=O)OC2CN(C(c3ccccc3)c3ccccc3)C2)=C(N)N1 (configuration not stated) has AC50 of 5.8 µM

Per the reported UniProtKB P23975 data, "O=C1c2ccccc2C(=O)C1c1ccccc1" has AC50 of > 10 µM

Per the reported UniProtKB P23975 data, "COc1ccc(C2C(=O)c3ccccc3C2=O)cc1" has AC50 of > 10 µM

Per the reported UniProtKB P23975 data, "CCc1nc(N)nc(N)c1-c1ccc(Cl)cc1" has AC50 of > 30 µM

Per the reported UniProtKB P23975 data, Cn1c(=O)c2c(ncn2CCOC(=O)C(C)(C)Oc2ccc(Cl)cc2)n(C)c1=O [THEOFIBRATE] has AC50 of > 30 µM

Per the reported UniProtKB P23975 data, "COC(=O)[C@H]1[C@H]2C[C@@H]3c4[nH]c5cc(OC)ccc5c4CCN3C[C@H]2C[C@@H](OC(=O)c2cc(OC)c(OC)c(OC)c2)[C@@H]1OC" has AC50 of > 30 µM

Per the reported UniProtKB P23975 data, "CCOc1cc([C@@H](CS(C)(=O)=O)N2C(=O)c3cccc(NC(C)=O)c3C2=O)ccc1OC" has AC50 of > 30 µM

----------
# Experimental target: Muscarinic acetylcholine receptor M3 (Homo sapiens, UniProt P20309); note: assay procedure not described here
# Sequence (P20309 whole entry): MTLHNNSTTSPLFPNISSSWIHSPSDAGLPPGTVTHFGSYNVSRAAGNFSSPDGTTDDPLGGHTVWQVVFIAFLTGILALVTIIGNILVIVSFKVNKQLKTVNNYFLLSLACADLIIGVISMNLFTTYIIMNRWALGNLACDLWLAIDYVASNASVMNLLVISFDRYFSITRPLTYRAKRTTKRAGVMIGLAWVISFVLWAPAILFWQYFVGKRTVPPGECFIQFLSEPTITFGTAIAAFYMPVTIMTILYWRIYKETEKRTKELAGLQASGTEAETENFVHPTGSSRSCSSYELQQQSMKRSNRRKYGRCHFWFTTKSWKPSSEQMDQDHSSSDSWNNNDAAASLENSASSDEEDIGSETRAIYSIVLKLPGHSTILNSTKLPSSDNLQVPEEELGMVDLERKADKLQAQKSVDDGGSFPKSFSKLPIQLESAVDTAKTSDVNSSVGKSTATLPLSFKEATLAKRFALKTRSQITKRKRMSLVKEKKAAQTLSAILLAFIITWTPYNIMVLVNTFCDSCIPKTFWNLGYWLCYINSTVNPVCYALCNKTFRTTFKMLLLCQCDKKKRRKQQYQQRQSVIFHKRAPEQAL
Provide the recorded AC50 for the entries that follow.

"Cc1onc(-c2c(F)cccc2Cl)c1C(=O)N[C@@H]1C(=O)N2[C@@H]1SC(C)(C)[C@@H]2C(=O)O" yielded AC50 of > 30 µM

Clc1ccc(CCC(Cn2ccnc2)Sc2c(Cl)cccc2Cl)cc1 (centres undefined) yielded AC50 of 21 µM

"CCOC(=O)c1c(CSc2ccccc2)n(C)c2cc(Br)c(O)c(CN(C)C)c12" yielded AC50 of > 30 µM

CC1(C)S[C@@H]2[C@H](NC(=O)C(C(=O)O)c3ccccc3)C(=O)N2[C@H]1C(=O)O (some centres undefined) yielded AC50 of > 30 µM

----------
Observed property: AC50

Per the reported Melanocortin receptor 4 (Homo sapiens) data, C[C@]12C=CC(=O)C=C1CC[C@@H]1[C@@H]2CC[C@]2(C)OC(=O)CC[C@@H]12 [TESTOLACTONE] has AC50 of > 10 µM

Per the reported Melanocortin receptor 4 (Homo sapiens) data, "CCOc1nc2cccc(C(=O)O)c2n1Cc1ccc(-c2ccccc2-c2nnn[nH]2)cc1" has AC50 of > 10 µM

Per the reported Melanocortin receptor 4 (Homo sapiens) data, CC[C@@H](CO)NC(=O)[C@@H]1C=C2c3cccc4c3c(cn4C)C[C@H]2N(C)C1 [METHYSERGIDE] has AC50 of > 30 µM

Per the reported Melanocortin receptor 4 (Homo sapiens) data, CN(C)Cc1nnc2n1-c1ccc(Cl)cc1C(c1ccccc1)=NC2 [ADINAZOLAM] has AC50 of > 10 µM

Per the reported Melanocortin receptor 4 (Homo sapiens) data, CC(C)[C@@H](C)/C=C/[C@@H](C)[C@H]1CC[C@H]2/C(=C/C=C3\C[C@@H](O)CC[C@@H]3C)CCC[C@]12C [DIHYDROTACHYSTEROL] has AC50 of > 10 µM

Per the reported Melanocortin receptor 4 (Homo sapiens) data, CCCC(C)(COC(N)=O)COC(N)=O [MEPROBAMATE] has AC50 of > 10 µM

Per the reported Melanocortin receptor 4 (Homo sapiens) data, C[C@]12CCC(=O)C[C@@H]1CC[C@@H]1[C@@H]2CC[C@]2(C)[C@@H](O)CC[C@@H]12 [STANOLONE] has AC50 of > 30 µM

Per the reported Melanocortin receptor 4 (Homo sapiens) data, COc1ccc([C@@H]2CC(=O)c3c(O)cc(O)cc3O2)cc1O [HESPERETIN] has AC50 of > 10 µM

Per the reported Melanocortin receptor 4 (Homo sapiens) data, O=C(O)Cc1ccccc1Oc1ccc(Cl)cc1Cl [FENCLOFENAC] has AC50 of > 30 µM

Per the reported Melanocortin receptor 4 (Homo sapiens) data, C=CC[N+]1([C@H]2C[C@H]3[C@@H]4CC[C@H]5C[C@H](O)[C@@H](N6CCOCC6)C[C@]5(C)[C@H]4CC[C@]3(C)[C@H]2OC(C)=O)CCCC1 [ROCURONIUM] has AC50 of > 30 µM

Per the reported Melanocortin receptor 4 (Homo sapiens) data, CC(CN(C)C)C(C)(O)Cc1ccc(Cl)cc1 (stereo not drawn) [CLOBUTINOL] has AC50 of > 30 µM

Per the reported Melanocortin receptor 4 (Homo sapiens) data, CN(CCOc1ccc(CC2SC(=O)NC2=O)cc1)c1ccccn1 (stereo not drawn) [ROSIGLITAZONE] has AC50 of 23.7 µM

Per the reported Melanocortin receptor 4 (Homo sapiens) data, COc1ccc2cc(CCC(C)=O)ccc2c1 [NABUMETONE] has AC50 of > 10 µM

Per the reported Melanocortin receptor 4 (Homo sapiens) data, CCCN(CCC)S(=O)(=O)c1ccc(C(=O)O)cc1 [PROBENECID] has AC50 of > 10 µM

Per the reported Melanocortin receptor 4 (Homo sapiens) data, "C[N+]1(C)CCC(=C(c2ccccc2)c2ccccc2)CC1" has AC50 of > 30 µM

Per the reported Melanocortin receptor 4 (Homo sapiens) data, "CCCc1nc2c(C)cc(-c3nc4ccccc4n3C)cc2n1Cc1ccc(-c2ccccc2C(=O)O)cc1" has AC50 of > 30 µM

Per the reported Melanocortin receptor 4 (Homo sapiens) data, Cc1ccccc1N1C(=O)c2cc(S(N)(=O)=O)c(Cl)cc2NC1C (stereo not drawn) [METOLAZONE] has AC50 of > 10 µM

Per the reported Melanocortin receptor 4 (Homo sapiens) data, Cc1cc(C)nc(NS(=O)(=O)c2ccc(N)cc2)n1 [SULFAMETHAZINE] has AC50 of > 10 µM

----------
Provide the recorded AC50 for the entries that follow.
# Experimental target: 5-hydroxytryptamine receptor 2B (Homo sapiens, UniProt P41595); note: assay procedure not described here
# Sequence (P41595 whole entry): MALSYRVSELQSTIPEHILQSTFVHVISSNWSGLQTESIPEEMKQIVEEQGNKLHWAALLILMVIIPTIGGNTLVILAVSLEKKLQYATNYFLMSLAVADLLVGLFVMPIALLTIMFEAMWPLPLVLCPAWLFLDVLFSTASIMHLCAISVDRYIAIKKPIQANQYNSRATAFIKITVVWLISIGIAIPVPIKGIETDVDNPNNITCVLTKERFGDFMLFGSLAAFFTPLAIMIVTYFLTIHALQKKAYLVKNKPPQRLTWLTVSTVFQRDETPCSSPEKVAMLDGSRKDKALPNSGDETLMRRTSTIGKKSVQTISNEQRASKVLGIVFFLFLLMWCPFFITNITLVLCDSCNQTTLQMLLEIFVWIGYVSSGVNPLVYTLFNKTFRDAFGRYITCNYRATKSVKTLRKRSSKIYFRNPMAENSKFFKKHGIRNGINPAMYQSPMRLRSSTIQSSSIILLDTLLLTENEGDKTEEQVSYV
# Type: functional, cell-based

CC(=O)c1ccc(S(=O)(=O)NC(=O)NC2CCCCC2)cc1 [ACETOHEXAMIDE] yielded AC50 of > 30 µM

"CC(=O)[C@H]1CC[C@H]2[C@@H]3C[C@H](C)C4=CC(=O)CC[C@]4(C)[C@H]3[C@@H](O)C[C@]12C" yielded AC50 of > 10 µM

COC(=O)C1=C(C)NC(C)=C(C(=O)OCCN2CCN(C(c3ccccc3)c3ccccc3)CC2)C1c1cccc([N+](=O)[O-])c1 (stereo not drawn) yielded AC50 of > 30 µM

CCCN1CC(NS(=O)(=O)N(CC)CC)CC2Cc3c(O)cccc3CC21 (stereo not drawn) [QUINAGOLIDE] yielded AC50 of 3.67 µM

CC(C(=O)O)c1ccc2oc(-c3ccc(Cl)cc3)nc2c1 (stereo not drawn) yielded AC50 of > 30 µM

O=C(O)CCNC(=O)c1ccc(/N=N/c2ccc(O)c(C(=O)O)c2)cc1 [BALSALAZIDE] yielded AC50 of > 30 µM

CC(C)(C)NCC(O)c1ccccc1Cl (stereo not drawn) yielded AC50 of > 30 µM

"CC(C)C[C@H](NC(=O)[C@@H](O)[C@H](N)Cc1ccccc1)C(=O)O" yielded AC50 of > 30 µM
